target: Follistatin (Homo sapiens); assay: follistatin binders on small-molecule microarrays, primary screen, biochemical, small-molecule microarray, 635/667 nm fluorescence (AID 1132); details: FST binding, 635 nm fluorescence, higher = more signal
result-type: composite z-score
A bare number is all that is needed in reply.

Worked examples follow.
CC(C)C[C@@H]1NC(=O)[C@H]2C[C@@H](C(=O)NCCCCCC[N+](C)(C)C)[C@@H](c3cccc(OCCO)c3)N2C1=O	1.43
CC(C)CCC[C@@H](C)[C@H]1CC[C@@]2(C)C3=C(CC[C@]12C)[C@@]1(C)CC[C@H](OC(=O)c2ccc(Br)cc2)C(C)(C)C1CC3 (some centres undefined)	0.485
CC(C)NC(=O)[C@@]1(C)c2ccccc2C(=O)N(C(C)C)[C@H]1c1ccc(CO)cc1	-0.75

// moving on: another record for composite z-score
The measured composite z-score associated with COC(=O)[C@@]1(Cc2ccc(OC)cc2)[C@H]2c3cc(C(=O)N(C)C)n(Cc4nc5ccccc5[nH]4)c3C[C@H]2CN1C(=O)c1ccccc1 reads 0.907
